Here's a batch of compounds along with measured pIC50 for SYK kinase (Homo sapiens, UniProt P43405).
pIC50: −log10 of the molar value.

Examples with their reported pIC50 follow.
c1ccc2oc(-c3nc(Nc4cnn(C5CCOCC5)c4)c4[nH]ncc4n3)nc2c1 ... 7.00 to 8.00
COCCCn1cc(Nc2nc(C3CC3)nc3cn[nH]c23)cn1 ... 7.00 to 8.00
FCCn1cc(Nc2nc(C3CCC3)nc3cn[nH]c23)cn1 ... 7.00 to 8.00
N#Cc1cc(Nc2nc(-c3ccc4cn[nH]c4c3)nc3cn[nH]c23)ccc1N1CCOCC1 ... 7.00 to 8.00
CN1CCN(C(=O)c2ccc(Nc3nc(-c4c(F)cccc4F)nc4cn[nH]c34)cc2)CC1 ... 6.00 to 7.00

// map COCCn1cc(Nc2nc(-c3ccco3)nc3cn[nH]c23)cn1 to recorded pIC50 (system: SYK kinase (Homo sapiens, UniProt P43405))
7.00 to 8.00

// map COCCCn1cc(Nc2nc(-c3cccc(S(N)(=O)=O)c3)nc3cn[nH]c23)cn1 to recorded pIC50 (system: SYK kinase (Homo sapiens, UniProt P43405))
6.00 to 7.00

// map COCCCn1cc(Nc2nc(-c3cccc(NS(C)(=O)=O)c3)nc3cn[nH]c23)cn1 to recorded pIC50 (system: SYK kinase (Homo sapiens, UniProt P43405))
7.00 to 8.00

All values here come from patent US9637491B2.
